Reference for the values: patent US11597702B2

target: GPR120 (Homo sapiens, UniProt Q5NUL3); construct: expressed in transfected cells; host or cells: CHO mitoPhotinaGPR120 cells; test: GPR120 agonism in CHO mitoPhotinaGPR120 cell based assay with fluorescent (Fluo-8 calcium, FLIPRTetra) readout, Agonist Mode, dose response; conditions: CHO mitoPhotinaGPR120 cells, Fluo-8 No Wash Ca2+ dye, dose response in quadruplicate, 0.0033% fatty acid free BSA
Sequence (Q5NUL3 whole entry): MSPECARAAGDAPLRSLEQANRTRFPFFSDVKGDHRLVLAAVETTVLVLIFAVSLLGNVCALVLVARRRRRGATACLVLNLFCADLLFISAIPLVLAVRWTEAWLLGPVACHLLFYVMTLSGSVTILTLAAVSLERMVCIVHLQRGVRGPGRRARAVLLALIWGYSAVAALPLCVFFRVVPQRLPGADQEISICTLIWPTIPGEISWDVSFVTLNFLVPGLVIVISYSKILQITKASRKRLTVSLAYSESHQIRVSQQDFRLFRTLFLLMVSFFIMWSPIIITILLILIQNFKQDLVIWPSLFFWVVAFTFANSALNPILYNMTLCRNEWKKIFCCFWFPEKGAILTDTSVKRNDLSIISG
Quantity: EC50 (µM)

molecule=Cc1nn(-c2ccccc2)c(COc2ccc3n[nH]cc3c2)c1C#N experimental_target="GPR120 (Homo sapiens, UniProt Q5NUL3)" value_observed=1.02
molecule="Cc1nn(-c2ccccc2)c(COc2ccc(C(C)O)cc2)c1C#N (stereo not drawn)" experimental_target="GPR120 (Homo sapiens, UniProt Q5NUL3)" value_observed=18.4
molecule="Cc1nn(-c2ccccc2)c(COc2ccc(CCC(C)O)cc2)c1C#N (racemic) [Example 47]" experimental_target="GPR120 (Homo sapiens, UniProt Q5NUL3)" value_observed=1.65
molecule=CCc1ccc(-n2nc(C)c(C#N)c2COc2ccc(CCCO)cc2)cc1 experimental_target="GPR120 (Homo sapiens, UniProt Q5NUL3)" value_observed=0.24

1: Cc1nn(-c2ccc(F)cn2)c(COc2c(F)cc(CCCO)cc2F)c1C#N
2: CCc1ccc(-n2nc(C)c(C#N)c2COc2c(F)cc(CCCO)cc2F)cc1
Select the item with the higher value of EC50 from the options 1 and 2 listed. Use the label to indicate which entry you chose.
2

a: Cc1nn(Cc2ccccc2)c(COc2ccc(CCCO)cc2)c1C#N
b: COc1ccc(S(=O)(=O)Nc2c(C)cc(C)cc2C)cc1 [GSK137639A, reference compound]
Consider entries a and b . Which has the numerically lower EC50? Output the label that corresponds to your choice.
a
(a: 0.99 µM, b: 4.48 µM)

1: Cc1nn(-c2ccccc2F)c(COc2ccc(CCO)cc2)c1C#N
2: Cc1nn(-c2ccc(F)cc2)c(COc2ccc(CCCO)cc2)c1C#N
3: Cc1nn(-c2ccncc2)c(COc2ccc(CCO)cc2)c1C#N
Which order do these items take when sorted by rising EC50? List them. Submit the labels in the order that the ranking request calls for.
2, 1, 3

----------
target: GPR120 (Homo sapiens); construct: expressed in transfected cells; host or cells: CHO mitoPhotinaGPR120 cells; test: GPR120 agonism in CHO mitoPhotinaGPR120 cell based assay with fluorescent (Fluo-8 calcium, FLIPRTetra) readout, Agonist Mode, dose response; settings: CHO mitoPhotinaGPR120 cells, Fluo-8 No Wash Ca2+ dye, dose response in quadruplicate, 0.0033% fatty acid free BSA
Quantity: EC50 (µM)

Here are 5 molecules together with their reported answers.
molecule="Cc1nn(-c2ccccc2)c(COc2ccc(CO)cc2)c1C#N [Example 5]" display_unit=µM value_observed=2.31
molecule="Cc1nn(-c2ccc(F)cc2)c(COCc2ccccc2)c1C#N [Example 98]" display_unit=µM value_observed=9.9
molecule="Cc1cccc(-n2nc(C)c(C#N)c2COc2ccc(CCO)cc2)c1 [Example 73]" display_unit=µM value_observed=1.98
molecule="Cc1nn(-c2c(F)cccc2F)c(COc2ccc(CCO)cc2)c1C#N [Example 112]" display_unit=µM value_observed=10.2
molecule="Cc1nn(-c2ccc(Cl)cc2)c(COc2c(F)cc(CCCO)cc2F)c1C#N [Example 162]" display_unit=µM value_observed=0.43

I: Cc1nn(-c2ccccc2)c(CSc2ccc(CCO)cc2)c1C#N [Example 59]
II: Cc1nn(-c2ccc(Cl)cc2)c(COc2ccc(CCCO)cc2)c1C#N [Example 152]
III: N#Cc1cnn(-c2ccccc2)c1COc1ccc(CCCO)cc1 [Example 130]
Arrange the 3 entries by EC50 so the values rise. A complete answer lists every label in the requested sequence.
III, II, I
